# System: arNOX
# Construct: other: infusion; human saliva
# ASSAY: arNOX inhibition assay (superoxide-dependent reduction of ferric cytochrome c)
# Type: biochemical, human
# CONDITIONS: read-out: EC50 (dose which causes 50% inhibition of arNOX activity)
PARAMETER: pEC50
# pEC50: negative log10 of molar concentration; output just the value

Looking up `Cc1cc(C)cc(C(=O)O)c1` , I found its pEC50 recorded as 6.70
